Where these numbers come from: paper PMC11181328

Form field: Emax (one value per entry).
biological target: DOR (Homo sapiens); construct: expressed in transfected cells; membrane homogenate; experiment: [35S]-GTPγS functional assay, DOR; assay type: biochemical; settings: percent of SNC80 full agonist control
Sequence (P41143 whole entry): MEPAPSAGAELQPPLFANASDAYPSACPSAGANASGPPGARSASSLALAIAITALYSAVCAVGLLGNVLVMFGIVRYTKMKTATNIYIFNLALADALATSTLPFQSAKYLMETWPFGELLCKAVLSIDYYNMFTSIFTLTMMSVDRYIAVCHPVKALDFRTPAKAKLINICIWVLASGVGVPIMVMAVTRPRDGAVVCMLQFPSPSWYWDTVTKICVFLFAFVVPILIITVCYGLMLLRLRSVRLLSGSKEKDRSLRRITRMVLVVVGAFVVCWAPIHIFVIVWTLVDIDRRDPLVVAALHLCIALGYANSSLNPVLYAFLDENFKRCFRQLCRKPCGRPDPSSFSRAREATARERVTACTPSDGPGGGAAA
Numbers only; they are read as %.

# smiles input, Emax, %
measured = [
    ("CN(C(=O)CCc1ccco1)[C@H]1CC[C@@]2(O)[C@H]3Cc4cccc5c4[C@@]2(CCN3CC2CC2)[C@H]1O5", 70.5),
]

I looked up `O=C(CCc1ccoc1)N[C@@H]1CC[C@@]2(O)[C@H]3Cc4cccc5c4[C@@]2(CCN3CC2CC2)[C@H]1O5` and its Emax for DOR (Homo sapiens) was 55.8
